Where do these numbers come from? They come from patent US11975051B1.

protocol description: Pharmacokinetics in mice dosed IV, SC and PO
Assay type: in vivo, mouse
condition summary: mouse, in vivo; PO, mice; read-out: PO AUCinf
Where no end group is shown, it is not given here.
reported property: AUC(0-inf) (ng·h/mL)

substance="RKDVY [TP-5, Arg-Lys-Asp-Val-Tyr, reference compound]" readout_unit=ng·h/mL value_observed=1270

###

protocol description: Mouse (liver) microsomal stability
Assay type: in vitro ADME
condition summary: mouse, liver microsomes, mouse liver microsomes; read-out: stability in mouse liver microsomes, half-life
Where a SMILES comes first, the peptide text is derived from it. [ ]: non-standard residue; d: D form.
reported property: half-life

compound="CC(C)[C@@H](NC(=O)[C@H](N)Cc1ccc(O)cc1)C(=O)N[C@H](CC(=O)O)C(=O)N[C@H](CCCCN)C(=O)N[C@H](CCCNC(=N)N)C(=O)O [TVALA™] (H-[dY][dV][dD][dK][dR]-OH)" value_observed="> 2 h"
